biological target: T1, cynomolgus monkey C-KIT, full length, on CHO-K1 cells (cynomolgus monkey); assay: flow cytometry, C-KIT-transfected CHO-K1 cells, IgG1 format
T1 construct: whole, on cells; also called cyno C-KIT+ CHO-K1 cells
attribute measured: EC50 (read off the curve)

binder	attribute measured	result
MH5.34 (antibody, IgG1, V domains shown, IgG1; also called C-KIT-MH5.34) VH: QVQLVQSGAEVKKPGASVKVSCKASGYTFTNYYMNWVRQAPGQGLEWMGRIYPASGNTYYAQKFQGRVTMTRDTSTSTVYMELSSLRSEDTAVYYCARGVWYFDSWGQGTLVTVSS VL: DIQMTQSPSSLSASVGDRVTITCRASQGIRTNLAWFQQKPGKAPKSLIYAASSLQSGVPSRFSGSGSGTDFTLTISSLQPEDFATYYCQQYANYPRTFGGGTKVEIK	EC50 (read off the curve)	~0.2 µg/mL
